Target or system: FGFR3 (Homo sapiens, UniProt P22607)
Sequence (P22607 472-761 limits assumed): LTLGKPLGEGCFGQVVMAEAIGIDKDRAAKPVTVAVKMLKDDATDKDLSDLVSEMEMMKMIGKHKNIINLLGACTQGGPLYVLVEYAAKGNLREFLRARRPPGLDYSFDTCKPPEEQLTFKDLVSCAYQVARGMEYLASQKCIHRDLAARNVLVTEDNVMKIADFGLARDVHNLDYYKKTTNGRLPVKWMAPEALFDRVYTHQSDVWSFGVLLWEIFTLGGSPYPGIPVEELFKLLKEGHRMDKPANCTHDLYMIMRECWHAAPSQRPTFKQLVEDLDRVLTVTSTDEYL
Method description: Kinase IC50, 33P labeled isotope method
Format: biochemical
Run conditions: 20 μM ATP
What pIC50 was measured for each of the following?
Worth noting: pIC50 values are minus log10 of concentrations stated in mol/L.

The measured pIC50 associated with Cc1cc2c(Nc3c[nH]nc3C(=O)Nc3ccc(CN4CCN(C)CC4)cc3)nccc2s1 reads 6.08

The measured pIC50 associated with CN1CCN(Cc2ccc(NC(=O)c3n[nH]cc3Nc3ncnc4[nH]ccc34)cc2)CC1 reads 6.18

The measured pIC50 associated with CN1CCN(Cc2ccc(NC(=O)c3n[nH]cc3Nc3ncnc4occc34)cc2)CC1 reads 6.05

The measured pIC50 associated with CN1CCN(Cc2ccc(NC(=O)c3n[nH]cc3Nc3ncnc4sccc34)cc2)CC1 reads 6.09

The measured pIC50 associated with Cc1cc2c(Nc3c[nH]nc3C(=O)Nc3ccc(CN4CCN(C)CC4)cc3)ncnc2[nH]1 reads 6.09
